Test system: OVCAR-5 ovarian
protocolDetails: NCI tumour cell line growth inhibition, 48 h
parameter: TGI (µM)

- C[C@H]1NC(=O)C2CCCCN2C(=O)CN(C)C(=O)CNC(=O)C2CCCCN2C(=O)[C@@H](NC(=O)c2nc3ccccc3cc2O)[C@@H](C)NC(=O)C2CCCCN2C(=O)CN(C)C(=O)CNC(=O)[C@@H]2CCCCN2C(=O)C1NC(=O)c1nc2ccccc2cc1O (some centres undefined): 7.55
- Cc1ccc(/C=C/c2c(C(=O)/C=C/c3ccc(C(F)(F)F)cc3)c(C)nc3ccccc23)cc1: 4.25
- COc1c(OC)c(OC)c(C(=O)/C=C/c2ccccc2)c(OC)c1OC: 36.9
- CC[C@]1(Cc2ccc(OC)c(OC)c2)[C@@H]2C[C@@H](C3OCCO3)ON2O[C@H](OC2CCCC2(c2ccccc2)c2ccccc2)[C@@H]1OC(C)=O (some centres undefined): 36

###

System: RXF 393 renal
protocolDetails: NCI tumour cell line growth inhibition, 48 h
Hi, to clarify the labels: label 1 covers TGI from 20 µM upward, label 0 covers anything below 20 µM.

- COc1ccc(C(OC(C)=O)C2C(=C(C#N)C#N)c3ccccc3C2=C(C#N)C#N)cc1 (stereo unspecified): label 1
- Cc1ccc(NC(=S)NNC(=O)c2cc(-c3ccccc3)nc3ccccc23)cc1: label 1
- C[C@H]1Oc2cc(cnc2N)-c2c(nn(C)c2C#N)CN(C)C(=O)c2ccc(F)cc21: label 1
- CCCCCC(/C=C/C1CCC(=O)C1CC#C[Si](C)(C)C)OCc1ccccc1 (stereo unspecified): label 1
- CC#C[P+](c1ccccc1)(c1ccccc1)c1ccccc1: label 0
- Cn1cc(C2=C(c3cn(C)c4cc(C(N)=O)ccc34)C(=O)NC2=O)c2ccccc21: label 0
- Cc1ccc(S(=O)(=O)N/N=C/c2oc(-c3ccncc3)c(-c3ccncc3)c2[N+](=O)[O-])cc1: label 1
- CC(C)(C)c1cc(C(=O)/C=C/C=C/c2ccccc2)cc(C(C)(C)C)c1O: label 0
- C=CC(=O)N1CCC(C2CCNc3c(C(N)=O)c(-c4ccc(Oc5ccccc5)cc4)nn32)CC1 (stereo unspecified): label 1
- O=c1cc(-c2ccccc2)[nH]c2c(S)cccc12: label 1
- COc1ccc(C(O)c2nccn2C)c(OC)c1 (stereo unspecified): label 1

###

This section presents compounds with their documented TGI values.
Test system: CCRF-CEM leukemia
protocolDetails: NCI tumour cell line growth inhibition, 48 h
parameter: TGI

* O=c1[nH]cc(COCCO)c(=O)[nH]1 | > 100 µM
* COc1ccc(-c2cc(-c3ccccc3)c(C#N)c(=O)n2C2OC(CO)C(O)C(O)C2O)cc1 (centres undefined) | > 100 µM
* CN1C(=O)C(CC=O)(C(C)(C)C)c2ccccc21 (centres undefined) | > 100 µM
* N#C/C=C(\c1ccc([N+](=O)[O-])cc1)n1nnc2cc(Cl)c(Cl)cc21 | 29.4 µM
* COc1ccccc1N1CCN(CCCn2c(=O)c3c(OC)nc(C)cc3c(=O)n2-c2ccccc2)CC1 | > 100 µM
* CCCNC(=S)/N=C/c1c(O)c2ccccc2[nH]c1=O | > 100 µM
* O=C1C[C@H]2[C@@H](O1)[C@@H](O)CN1C(=O)c3ccccc3[C@H]21 | > 100 µM
* CCN(CC)CCOc1ccc(/C=C2\CC3C4CC=C5C[C@@H](O)CC[C@]5(C)C4CC[C@]3(C)C2=O)cc1OC (some centres undefined) | > 22 µM
* CC(C)=CCc1cc(O)cc2c1OC(C=C(C)C)C1=C2C(=O)C2=C(NCCS2(=O)=O)C1=O (centres undefined) | > 16.7 µM
* CN1CCN(CN2C(=O)C3C4C=CC(C3C2=O)C2C(=O)N(CN3CCN(C)CC3)C(=O)C42)CC1 (centres undefined) | > 100 µM
* O=C1c2ccccc2C2(O)c3cc4ccccc4cc3OC12O (centres undefined) | > 100 µM
* C[C@@H]1CCC2[C@@H](C)[C@@H](OCCO[C@H]3OC4O[C@@]5(C)CCC6[C@H](C)CCC([C@H]3C)[C@@]46OO5)OC3O[C@@]4(C)CCC1[C@]32OO4 (some centres undefined) | > 100 µM
* CC(=O)O[C@H]1CCC2[C@@H]3CCC4=C(O)c5nocc5C[C@]4(C)C3CC[C@@]21C (some centres undefined) | > 100 µM
* CC(=O)Nc1ccc2cc(C)c(=O)[nH]c2n1 | > 100 µM
* CC(NNC(=O)CC(=O)N(C(=O)c1ccccc1)c1ccc(Cl)cc1)c1cc2ccccc2oc1=O (centres undefined) | > 10 µM
* O=[N+]([O-])c1cc2c(c3nonc13)OCCCCO2 | 4.98 µM
* Cc1cn2c(/C=C3\C(=O)Nc4ccc(O)cc43)c(-c3ccc(Cl)cc3)nc2s1 | > 100 µM
* COC(=O)c1c(O)ccc2c1c1c(n2Cc2ccc(Cl)cc2Cl)C(=O)c2ccccc2C1 | 71.3 µM
* O=P(O)(Cc1ccccc1)c1ccccc1-c1ccccc1 | > 100 µM
* O=C(N/N=C1/C(=O)N(c2ccc(Cl)cc2Cl)C(=O)C(=O)C1c1nc2ccccc2o1)c1ccccc1O (centres undefined) | > 100 µM
* COc1ccc(OC)c(N2C(=O)CSC2c2cc(OC)c(OC)c(OC)c2)c1 (centres undefined) | > 100 µM
* Nc1c(C(=O)Nc2cccc(Br)c2)sc2nc3c(cc12)C(=O)CCC3 | > 100 µM
* O=C(c1c(F)ccc(NS(=O)(=O)N2CC[C@@H](F)C2)c1F)c1c[nH]c2ncc(-c3cnc(C4CC4)nc3)cc12 | > 100 µM
* COc1ccc(C(O)c2nccn2C)c(OC)c1 (centres undefined) | > 100 µM
* CCSc1[nH]c(Nc2nc(-c3ccccc3)n(-c3ccccc3)n2)c(C(N)=O)c1C(N)=O | > 10 µM
* COc1ccc2[nH]cc(-c3nc(-c4c[nH]c5ncccc45)cs3)c2c1 | > 100 µM
* CC(C)=C1C(=O)C[C@]2(C)C[C@H]3/C(=C(/C)CCC12)CC[C@@]3(C)O (some centres undefined) | > 50 µM
* O=[N+]([O-])c1ccc(S(=O)(=O)N=Ic2ccccc2)cc1 | > 100 µM
* C[C@@]12CCC3C1C=C1C(=O)c4cc(O)ccc4C(=O)[C@]1(O2)[C@@]3(C)C=O | 4.02 µM
* Cc1ccc(C(=O)N/N=C(\N=Nc2ccccc2[N+](=O)[O-])c2ccc(N(C)C)cc2)cc1 | > 100 µM
* Nc1nc2c(ncn2Cc2ccc(CO)cc2)c(=O)[nH]1 | > 100 µM
* N#Cc1c(-c2ccc(F)cc2)c(-c2ccc(F)cc2)nn(CCO)c1=O | 24.9 µM
* COc1ccc2oc(-c3cccnc3)cc(=O)c2c1 | > 100 µM
* CN(C)/C=N/n1c2ccccc2c2ccccc21 | > 100 µM
* COC(=O)C1(OC(=O)Sc2ccccc2)CCN(C)CC1 | 19.7 µM
* O=C(c1cc(Cl)cc(Cl)c1)N1CCN(C(=O)c2cc(Cl)cc(Cl)c2)C1=S | 21.4 µM
* O=S(=O)(O)c1ccc(N=Nc2ccc(N=Nc3c(O)ccc4ccccc34)cc2)cc1 | > 100 µM
* COc1ccncc1C#Cc1cncc(C(=O)Nc2ccc(CN3CCN(C)CC3)c(C(F)(F)F)c2)c1 | > 100 µM
* C[C@H]1[C@H](C)CC[C@]2(C(=O)OCCOCCOCC[P+](c3ccccc3)(c3ccccc3)c3ccccc3)CC[C@]3(C)C(=CC[C@@H]4[C@@]5(C)CC[C@H](OC(=O)C(Cl)Cl)C(C)(C)[C@@H]5CC[C@]43C)[C@H]12 | 1.61 µM
